System: BT-549 breast
Experiment: NCI tumour cell line growth inhibition, 48 h; in the data active = GI50 below about 0.43 µM; inactive = the rest
Could you please pick one outcome from this set? active, inactive

Task item: # outcome recorded in this test, key = C=C(CN1CCN(c2cccc(C(F)(F)F)c2)CC1)c1ccc(C(=O)Nc2ccccc2N)cc1
Reply: active

Task item: I'd appreciate the recorded outcome for COc1cc(/C=C/C(=O)c2cc(F)c(Cl)cc2Cl)cc(OC)c1OC from this test.
Reply: inactive

Task item: For Nc1ccc(C#Cc2cncnc2Nc2ccc(OCc3cccc(F)c3)c(Cl)c2)cc1 , which call appears in the assay record?
Reply: inactive

Task item: Could you check what this test reported for COc1cc2c3c(n(CCN)c(=O)c2cc1OC)-c1cc2c(cc1C3=O)OCO2 ?
Reply: inactive

Cited source: PubChem BioAssay (NCI)
